FYI, the data here is from ChEMBL document CHEMBL2169786.

Reported pIC50 values for the following molecules.
Molecular target: Tyrosyl-DNA phosphodiesterase 1 (Homo sapiens, UniProt Q9NUW8)
Sequence (Q9NUW8 whole entry): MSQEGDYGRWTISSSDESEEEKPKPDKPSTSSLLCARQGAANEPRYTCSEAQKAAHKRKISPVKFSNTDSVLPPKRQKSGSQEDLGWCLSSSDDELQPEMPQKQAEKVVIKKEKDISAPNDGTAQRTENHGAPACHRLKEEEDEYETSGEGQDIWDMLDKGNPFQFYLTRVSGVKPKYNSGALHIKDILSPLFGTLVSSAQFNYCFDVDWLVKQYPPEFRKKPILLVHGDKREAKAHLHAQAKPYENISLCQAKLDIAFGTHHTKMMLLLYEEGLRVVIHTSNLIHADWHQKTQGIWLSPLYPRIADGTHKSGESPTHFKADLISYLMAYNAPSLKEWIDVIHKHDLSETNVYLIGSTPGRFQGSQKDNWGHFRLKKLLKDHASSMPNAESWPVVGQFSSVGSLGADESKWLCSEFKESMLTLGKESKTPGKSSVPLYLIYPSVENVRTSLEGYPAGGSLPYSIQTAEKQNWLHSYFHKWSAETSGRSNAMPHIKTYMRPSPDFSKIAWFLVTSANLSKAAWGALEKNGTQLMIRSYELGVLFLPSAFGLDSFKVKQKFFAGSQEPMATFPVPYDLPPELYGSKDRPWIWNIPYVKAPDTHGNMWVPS
Test: Inhibition of human recombinant Tdp1 expressed in Tdp1 knockout chicken DT40 cells using 5'-32P-labeled 5'-GATCTAAAAGACTT-pY-3' as substrate after 15 mins by PAGE analysis
pIC50: −log10 of the molar value.
observedProperty: pIC50

                                   smiles  observedproperty  value
0         O=C1NC(=S)/C(=C/c2cc(O)ccc2O)S1             pIC50   4.12
1      O=C1NC(=S)/C(=C/c2ccc(O)c(O)c2O)S1             pIC50   4.46
2         O=C1NC(=S)/C(=C/c2cccc(O)c2O)S1             pIC50   3.66
3  O=C1NC(=S)/C(=C/c2ccc(P(=O)(O)O)cc2)S1             pIC50   4.16
4         O=C1NC(=S)/C(=C/c2ccc(O)cc2O)S1             pIC50   4.12
5      COC(=O)c1ccc(/C=C2\SC(=O)NC2=S)cc1             pIC50   4.42
6       O=C1NC(=S)/C(=C/c2ccc(O)c(O)c2)S1             pIC50   4.39
